- systemName: intestinal α-glucosidase
- assayText: Assay for intestinal α-glucosidase inhibition (p-nitrophenyl α-D-glucopyranoside substrate, read at 405 nm)
- Format: biochemical, Rat
measurementName: in vitro α-glucosidase inhibitory activity IC50 (µg/mL)

1: COc1c(O)cc2oc(-c3ccccc3)cc(=O)c2c1O
2: O=c1cc(-c2ccccc2)oc2cc(O)cc(O)c12 [Chrysin, 5,7-dihydroxy-2-phenyl-chromen-4-one]
3: O=c1cc(-c2ccccc2)oc2cc(O)c(O)c(O)c12 [Baicalein, 5,6,7-trihydroxy-2-phenyl-chromen-4-one]
4: COC(=O)[C@H]1O[C@@H](Oc2cc3oc(-c4ccccc4)cc(=O)c3c(O)c2OC)[C@H](O)[C@@H](O)[C@@H]1O [Oroxyloside methyl ester]
### Prompt Can you order these entries from above by in vitro α-glucosidase inhibitory activity IC50? Start with the largest number and work down. Answer format: list of labels, ordered as asked.
### Response 4, 2, 3, 1
